# target: canine TRPM8 (Canis lupus familiaris)
# Construct: expressed in transfected cells
# Sequence (Q1A7N1 1-1104): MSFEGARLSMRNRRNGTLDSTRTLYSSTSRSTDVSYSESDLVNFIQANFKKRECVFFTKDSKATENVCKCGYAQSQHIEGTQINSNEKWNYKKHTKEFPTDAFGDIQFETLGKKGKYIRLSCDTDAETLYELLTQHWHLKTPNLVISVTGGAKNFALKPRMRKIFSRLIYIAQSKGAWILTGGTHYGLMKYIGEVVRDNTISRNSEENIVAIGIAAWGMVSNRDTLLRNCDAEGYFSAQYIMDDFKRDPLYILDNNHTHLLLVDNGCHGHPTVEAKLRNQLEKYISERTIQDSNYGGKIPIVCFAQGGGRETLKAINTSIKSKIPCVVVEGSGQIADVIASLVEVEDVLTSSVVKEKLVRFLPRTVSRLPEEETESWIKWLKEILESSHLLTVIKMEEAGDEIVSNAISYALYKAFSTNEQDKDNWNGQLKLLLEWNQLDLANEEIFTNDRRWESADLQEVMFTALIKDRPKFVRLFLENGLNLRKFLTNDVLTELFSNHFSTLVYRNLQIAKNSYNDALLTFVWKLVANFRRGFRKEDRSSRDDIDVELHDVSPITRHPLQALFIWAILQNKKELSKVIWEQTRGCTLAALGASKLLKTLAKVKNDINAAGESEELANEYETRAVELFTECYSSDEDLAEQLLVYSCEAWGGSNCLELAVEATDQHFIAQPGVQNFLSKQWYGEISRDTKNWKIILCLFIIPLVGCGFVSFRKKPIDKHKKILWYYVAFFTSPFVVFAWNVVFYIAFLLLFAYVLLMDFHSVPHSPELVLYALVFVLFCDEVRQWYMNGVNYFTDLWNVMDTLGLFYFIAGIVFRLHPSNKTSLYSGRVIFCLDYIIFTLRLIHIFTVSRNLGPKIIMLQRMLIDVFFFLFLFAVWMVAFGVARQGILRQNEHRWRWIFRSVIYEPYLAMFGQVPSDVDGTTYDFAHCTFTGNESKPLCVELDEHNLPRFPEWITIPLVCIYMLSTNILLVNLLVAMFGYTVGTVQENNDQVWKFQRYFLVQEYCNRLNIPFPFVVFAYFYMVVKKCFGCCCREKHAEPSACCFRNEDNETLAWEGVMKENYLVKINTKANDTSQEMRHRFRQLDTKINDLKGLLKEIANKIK
# test method notes: In Vitro Canine TRPM8 Functional Assay (icilin-induced intracellular Ca2+, FLIPR/FDSS)
# Assay type: cell-based
# test settings: HEK293 cells stably expressing canine TRPM8; icilin at approx. 80% maximal response; eight-point concentration-response; read-out: IC50
Where a name gives a salt, the structure may show the parent alone.
assay endpoint: pIC50
Answers are plain numbers, as −log10 of the molar value.

Query (molecule): Cn1c(N(Cc2cc(C(F)(F)F)ccc2F)S(=O)(=O)c2ccccc2)nc2ccccc21 [compound 22] ; field requested: pIC50
8.22

Query (molecule): CCCCN(c1nc2ccccc2n1C)S(=O)(=O)c1ccccc1 [Compound #4] ; field requested: pIC50
7.39

Query (molecule): Cn1c(N(Cc2ccc(C(F)(F)F)c(F)c2)S(=O)(=O)c2ccc(F)cc2)nc2ccccc21 [compound 38] ; field requested: pIC50
7.96

Hi there! I need pIC50 for each item below, if you can.
1. Cn1c(N(Cc2cccc(OC(F)(F)F)c2)S(=O)(=O)c2ccccc2)nc2ccccc21 [compound 13]
2. CCn1c(N(Cc2ccc(C(F)(F)F)c(F)c2)S(=O)(=O)c2ccccc2)nc2cc(F)ccc21 [compound 48]
3. Cn1c(N(Cc2ccc(C(F)(F)F)c(F)c2)S(=O)(=O)c2ccccc2)nc2ccccc21 [compound 21]
4. Cn1c(N(Cc2ccc(C(F)(F)F)c(F)c2)S(=O)(=O)c2ccc(Cl)cc2)nc2ccccc21 [compound 39]
5. O=S(=O)(c1ccccc1)N(Cc1ccc(C(F)(F)F)cc1)c1nc2cccc3c2n1CCC3 [compound 65]
6. Cc1ccc(S(=O)(=O)N(Cc2ccc(F)c(C(F)(F)F)c2)c2nc3ccccc3n2C)cc1 [compound 18]
7. Cn1c(N(Cc2ccc(C(F)(F)F)cc2)S(=O)(=O)c2ccccc2)nc2cc(F)ccc21 [compound 43]

1. 8.52
2. 8.15
3. 9.00
4. 8.00
5. 7.77
6. 7.85
7. 8.40

Hi there! I need pIC50 for each item below, if you can.
1. O=S(=O)(c1ccccc1)N(Cc1ccc(OC(F)(F)F)cc1)c1nc2ccccc2n1CC(F)(F)F [compound 59]
2. Cn1c(N(Cc2ccc(OC(F)F)cc2)S(=O)(=O)c2ccccc2)nc2ccccc21 [compound 23]
3. CC(C)n1c(N(Cc2ccc(OC(F)(F)F)cc2)S(=O)(=O)c2ccccc2)nc2cc(Cl)ccc21 [compound 61]
4. Cn1c(N(c2ccc(Cl)cc2)S(=O)(=O)c2ccccc2)nc2ccccc21 [Compound #36]
5. Cc1cc2nc(N(Cc3ccc(C(F)(F)F)c(F)c3)S(=O)(=O)c3ccccc3)n(C)c2cc1C [compound 75]

1. 7.11
2. 8.70
3. 7.33
4. 7.48
5. 7.55

Hi there! I need pIC50 for each item below, if you can.
1. CC(C)Cn1c(N(Cc2ccc(OC(F)(F)F)cc2)S(=O)(=O)c2ccccc2)nc2ccccc21 [compound 49]
2. CC(C)n1c(N(Cc2ccc(C(F)(F)F)c(F)c2)S(=O)(=O)c2ccccc2)nc2cc(Cl)ccc21 [compound 56]
3. Cn1c(N(Cc2ccc(C(F)(F)F)c(F)c2)S(=O)(=O)c2ccc(C(F)(F)F)cc2)nc2ccccc21 [compound 40]
4. Cn1c(N(Cc2ccc(C(F)(F)F)cc2)S(=O)(=O)c2ccc(C(F)(F)F)cc2)nc2ccccc21 [compound 31]
5. O=S(=O)(c1ccccc1)N(Cc1ccc(C(F)(F)F)c(F)c1)c1nc2ccccc2n1CC(F)(F)F [Compound #60]

1: 7.32; 2: 7.62; 3: 7.22; 4: 7.48; 5: 7.57

Hi there! I need pIC50 for each item below, if you can.
1. Cn1c(N(Cc2ccc(C(F)(F)F)cc2)S(=O)(=O)c2ccc(F)cc2)nc2ccccc21 [compound 28]
2. Cn1c(N(Cc2ccc(F)c(F)c2)S(=O)(=O)c2ccccc2)nc2ccccc21 [compound 9]
3. CCn1c(N(Cc2ccc(OC(F)(F)F)cc2)S(=O)(=O)c2ccccc2)nc2ccccc21 [compound 29]
4. O=S(=O)(c1ccccc1)N(Cc1ccc(C(F)(F)F)cc1)c1nc2cccc3c2n1CCO3 [Compound #72, TFA salt]
5. Cn1c(N(Cc2ccc(F)c(C(F)(F)F)c2)S(=O)(=O)c2cccc(Cl)c2)nc2ccccc21 [compound 14]
6. Cn1c(N(Cc2ccc(C(F)(F)F)c(F)c2)S(=O)(=O)c2ccccc2)nc2cc(F)ccc21 [compound 58]

1. 8.22
2. 8.70
3. 8.30
4. 7.66
5. 7.52
6. 8.22

Hi there! I need pIC50 for each item below, if you can.
1. O=S(=O)(c1ccccc1)N(Cc1ccc(C(F)(F)F)cc1)c1nc2ccccc2n1CC1CC1 [compound 70]
2. CC(C)Cn1c(N(Cc2ccc(C(F)(F)F)c(F)c2)S(=O)(=O)c2ccccc2)nc2ccccc21 [compound 50]
3. Cn1c(N(Cc2ccc(SC(F)(F)F)cc2)S(=O)(=O)c2ccccc2)nc2ccccc21 [compound 19]
4. Cc1ccc2nc(N(Cc3ccc(C(F)(F)F)cc3)S(=O)(=O)c3ccccc3)n(C)c2c1 [compound 68]

7.46
7.43
9.00
7.62

Query (molecule): Cn1c(N(Cc2ccc(F)cc2)S(=O)(=O)c2ccccc2)nc2ccccc21 [compound 8] ; field requested: pIC50
8.40

Origin of values: patent US8242157B2
